Measured values drawn from ChEMBL document CHEMBL4837181 for this set.

experiment: Chemical stability of compound in saline assessed as compound remaining at 5 uM measured after 24 hrs by LC-MS/MS analysis; format: physicochemical; conditions: read-out: Stabilty
What remaining at 24 h, 5 µM was measured for each of the following?
Quick reminder: number only, in %, skip the unit.

Summary for this compound, CCOC(=O)[C@@H](Cc1cn(C)c2ccccc12)NC(=O)[C@@H](N)CCC(N)=O.Cl : remaining at 24 h, 5 µM is 85

Summary for this compound, CCOC(=O)[C@@H](Cc1cn(C)c2ccccc12)NC(=O)[C@@H](N)Cc1ccccc1.Cl : remaining at 24 h, 5 µM is 90

Summary for this compound, CCOC(=O)[C@@H](Cc1cn(C)c2ccccc12)NC(=O)[C@@H](N)[C@@H](C)CC.Cl : remaining at 24 h, 5 µM is 97

Summary for this compound, Cl.Cn1cc(C[C@@H](NC(=O)[C@@H](N)CCC(N)=O)C(=O)O)c2ccccc21 : remaining at 24 h, 5 µM is 78

Summary for this compound, CCOC(=O)[C@@H](Cc1cn(C)c2ccccc12)NC(=O)[C@@H](N)CC(C)C.Cl : remaining at 24 h, 5 µM is 87

Summary for this compound, CN(C)CCOC(=O)[C@H](N)Cc1cn(C)c2ccccc12.Cl : remaining at 24 h, 5 µM is 47

Summary for this compound, CC(C)C[C@H](N)C(=O)N[C@H](Cc1cn(C)c2ccccc12)C(=O)O.Cl : remaining at 24 h, 5 µM is 99

Summary for this compound, Cl.Cn1cc(C[C@@H](N)C(=O)OCC(N)C(=O)O)c2ccccc21 (single isomer, unassigned) : remaining at 24 h, 5 µM is 70

Summary for this compound, CC(C)[C@H](N)C(=O)N[C@H](Cc1cn(C)c2ccccc12)C(=O)O.Cl : remaining at 24 h, 5 µM is 99
